# test-summary: chemical genetic growth profiling, strain panel (AID 1159580);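 note: tested at 20 µM; growth read once vehicle control cultures reached saturation at 30 °C; lower values mean less growth of the strain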
# stated-conditions: S. cerevisiae deletion strains, growth OD, locus YKL160W, strain elf1
The campaign covered roughly 5,500 compounds. About 2,000 (36%) were called active. Roughly 18% stayed inconclusive and do not appear here. Cut-off read from the data, not from the text of the source: active = normalized growth mostly below about 0.91 (no sharp cut-off); inconclusive = no clear call, values can overlap the other calls; inactive = mostly above about 0.92. The list shows a part of the results.
Labels: active, inactive

COc1ccc([C@H]2Oc3cc(OC)cc(OC)c3C[C@H]2O)cc1: inactive
OCc1ccccc1O: inactive
COc1ccc2c(c1OC)C(=O)OC2[C@H]1c2c(cc3c(c2OC)OCO3)CCN1C (stereo partly specified): inactive
CC(C)(C)CC(C)(C)c1ccc(O)c(Cc2ccc(Cl)cc2Cl)c1: inactive
Oc1ccc(Cl)cc1Cc1cc(Cl)ccc1O: active
CCCCN1CCCCC1C(=O)Nc1c(C)cccc1C (stereo unspecified): inactive
